# Procedure Details: Ross-Miles foam height (Examples 81-84)
# Format: physicochemical
# Condition: after 10 minutes; 0.1% aldonamide, 40° C. (or 5-10° C. above Krafft point), 0 ppm hardness
Reported Endpoint: Foam Height Final

>>> result_value("CCCCCCCCCCCCCCCCNC(=O)[C@H](O)[C@@H](O)[C@H](O[C@@H]1O[C@H](CO)[C@H](O)[C@H](O)[C@H]1O)[C@H](O)CO [C16 D-Lactobionamide]")
"95 mm"
>>> result_value("CCCCCCCCCNC(=O)[C@H](O)[C@@H](O)[C@H](O)[C@H](O)CO [C9 D-Gluconamide]")
"0 mm"
>>> result_value("CCCCCCCCCCCCNC(=O)[C@H](O)[C@@H](O)[C@H](O[C@@H]1O[C@H](CO)[C@H](O)[C@H](O)[C@H]1O)[C@H](O)CO [C12 D-Lactobionamide]")
"20 mm"
